# Tested on: RARg homodimer (NR concentration 270 nM)
# assay: PBM binding z-score (relative to random genomic background probes); higher = stronger binding; sequences stand for … in GC…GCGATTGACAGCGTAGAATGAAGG
result.type: PBM binding z-score

Some solved entries appear below for comparison.
sequence	assayed.target	PBM binding z-score
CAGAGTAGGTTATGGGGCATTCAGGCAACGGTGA	RARg homodimer (NR concentration 270 nM)	0.945
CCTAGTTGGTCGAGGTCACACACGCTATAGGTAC	RARg homodimer (NR concentration 270 nM)	4.42

Below: the item to evaluate.
[Q] Please look up its PBM binding z-score: `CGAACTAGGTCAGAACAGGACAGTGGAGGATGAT`
[A] 3.32

----------
# Test system: FXR:RXRa (NR concentration 270 nM, RXRa partner concentration 90 nM)
# assay: PBM binding z-score (relative to random genomic background probes); higher = stronger binding; sequences stand for … in GC…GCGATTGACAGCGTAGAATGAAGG
Please mark true (1) if the recorded PBM binding z-score is equal to or greater than 1, and false (0) if it falls below.

Consider the following illustrative entries.
sequence	group.label
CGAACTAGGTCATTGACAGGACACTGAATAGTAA	true (1)
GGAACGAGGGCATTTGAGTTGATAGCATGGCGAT	true (1)
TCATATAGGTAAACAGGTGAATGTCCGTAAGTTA	false (0)
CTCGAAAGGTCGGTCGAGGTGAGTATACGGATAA	true (1)
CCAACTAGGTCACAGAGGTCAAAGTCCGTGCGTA	true (1)

--- query ---
[Q] Item `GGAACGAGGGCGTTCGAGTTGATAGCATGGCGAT` with PBM binding z-score of 1 or above?
[A] false (0)

----------
# Test system: PPARg:RXRa DBDmut IVT, anti-RXR (DBD mutation: RXRa K156A/R161A, NR concentration 270 nM, RXRa partner concentration 90 nM)
# assay: PBM binding z-score (relative to random genomic background probes); higher = stronger binding; sequences stand for … in GC…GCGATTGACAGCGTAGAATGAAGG
Reported PBM binding z-score values for the following sequences.
Output: the number by itself.

sequence	PBM binding z-score
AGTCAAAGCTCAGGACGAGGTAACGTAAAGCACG	-0.71
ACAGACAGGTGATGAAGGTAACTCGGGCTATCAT	0.382
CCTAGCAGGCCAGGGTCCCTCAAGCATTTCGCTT	-0.423
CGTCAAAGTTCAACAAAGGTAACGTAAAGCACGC	0.464
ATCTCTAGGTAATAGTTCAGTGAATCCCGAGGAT	2.36
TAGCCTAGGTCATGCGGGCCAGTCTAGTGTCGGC	1.3
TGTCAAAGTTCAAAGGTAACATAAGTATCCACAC	0.298
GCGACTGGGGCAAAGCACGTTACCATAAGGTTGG	4.44
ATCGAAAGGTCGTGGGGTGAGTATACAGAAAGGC	1.35
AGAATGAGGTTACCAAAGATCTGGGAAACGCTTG	3.41

[Q] Which PBM binding z-score is reported for this sequence? `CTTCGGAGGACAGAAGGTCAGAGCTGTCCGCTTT`
[A] 0.227

[Q] Entry `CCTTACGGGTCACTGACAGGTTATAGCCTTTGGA` : reported PBM binding z-score = ?
[A] 2.98

----------
# Test system: LXRb homodimer (NR concentration 270 nM)
# assay: PBM binding z-score (relative to random genomic background probes); higher = stronger binding; sequences stand for … in GC…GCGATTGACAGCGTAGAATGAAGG
result.type: PBM binding z-score
Answer as a number with no unit attached.

sequence	assayed.target	quantitative.result
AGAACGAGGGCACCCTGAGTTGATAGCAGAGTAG	LXRb homodimer (NR concentration 270 nM)	-0.924
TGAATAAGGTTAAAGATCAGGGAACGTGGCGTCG	LXRb homodimer (NR concentration 270 nM)	0.337
TCGAGGAGGTTAGTCGGGGCATTCAGCCAACATA	LXRb homodimer (NR concentration 270 nM)	-0.337
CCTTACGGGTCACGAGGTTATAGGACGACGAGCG	LXRb homodimer (NR concentration 270 nM)	-0.117
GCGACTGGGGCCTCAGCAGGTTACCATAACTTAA	LXRb homodimer (NR concentration 270 nM)	-1.25

[Q] Notebook entry, LXRb homodimer (NR concentration 270 nM) assay: PBM binding z-score of `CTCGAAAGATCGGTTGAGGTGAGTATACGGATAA` = ?
[A] -0.43

[Q] What reported PBM binding z-score corresponds to `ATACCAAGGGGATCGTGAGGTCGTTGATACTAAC` on LXRb homodimer (NR concentration 270 nM)?
[A] -0.272

----------
Measured PBM binding z-score, listed per entry.
# Test system: RXRa homodimer (NR concentration 180 nM)
# assay: PBM binding z-score (relative to random genomic background probes); higher = stronger binding; sequences stand for … in GC…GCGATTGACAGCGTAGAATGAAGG
Just the number, please, no unit after it.

Sample answers from the record:
sequence	PBM binding z-score
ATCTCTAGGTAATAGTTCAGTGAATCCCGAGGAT	0.482
TCTAGTTGGTCACGGAGGTCACACAAGACGGGTA	4.67

[Q] Name the recorded PBM binding z-score for `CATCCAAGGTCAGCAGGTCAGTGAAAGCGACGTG` .
[A] 6.07

[Q] For the sequence `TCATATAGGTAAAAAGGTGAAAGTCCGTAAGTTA` , what PBM binding z-score is on record?
[A] 2.42

[Q] Quick check: PBM binding z-score of `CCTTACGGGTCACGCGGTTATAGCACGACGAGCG` ?
[A] 6.68

[Q] Look up PBM binding z-score for this sequence: `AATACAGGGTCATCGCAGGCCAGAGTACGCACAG`
[A] 6.8

[Q] Need PBM binding z-score, item `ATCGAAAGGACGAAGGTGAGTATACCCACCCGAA`
[A] 0.555

[Q] Any idea what its PBM binding z-score is? The sequence is `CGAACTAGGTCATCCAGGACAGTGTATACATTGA`
[A] 3.21

[Q] PBM binding z-score lookup needed for `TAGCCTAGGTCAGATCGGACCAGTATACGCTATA` , thanks.
[A] 1.46

----------
# System: LXRb:RXRa (NR concentration 270 nM, RXRa partner concentration 90 nM)
# assay: PBM binding z-score (relative to random genomic background probes); higher = stronger binding; sequences stand for … in GC…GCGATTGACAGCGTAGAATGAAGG
result.type: PBM binding z-score
Answer with a bare number; do not write a unit.

Past entries and their recorded results:
sequence	PBM binding z-score
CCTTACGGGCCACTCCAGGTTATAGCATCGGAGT	-0.116
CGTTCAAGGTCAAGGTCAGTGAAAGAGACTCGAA	5.06
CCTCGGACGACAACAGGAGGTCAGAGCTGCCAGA	1.42
TAGCCTAGGTCATGCGGGCCAGGATAGTGTCGGC	1.4
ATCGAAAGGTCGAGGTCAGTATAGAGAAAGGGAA	4.12
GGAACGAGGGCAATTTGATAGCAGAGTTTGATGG	0.427

[Q] I'm curious: which PBM binding z-score was measured for `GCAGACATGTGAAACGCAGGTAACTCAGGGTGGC` tested on LXRb:RXRa (NR concentration 270 nM, RXRa partner concentration 90 nM)?
[A] -0.864

[Q] // fetch LXRb:RXRa (NR concentration 270 nM, RXRa partner concentration 90 nM) PBM binding z-score for `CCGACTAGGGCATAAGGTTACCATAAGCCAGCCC`
[A] 1.02

[Q] What reported PBM binding z-score corresponds to `TAGCCTAGGTCATTCAGGTGCCAGTATAGAAAGC` on LXRb:RXRa (NR concentration 270 nM, RXRa partner concentration 90 nM)?
[A] 2.77

----------
# Test system: PPARg:RXRa 30nM:10nM, anti-RXR (NR concentration 30 nM, RXRa partner concentration 10 nM)
# assay: PBM binding z-score (relative to random genomic background probes); higher = stronger binding; sequences stand for … in GC…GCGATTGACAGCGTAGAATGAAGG
Criterion: PBM binding z-score meeting or surpassing 1. Met: Condition met. Not met: Condition not met.

sequence	group.label
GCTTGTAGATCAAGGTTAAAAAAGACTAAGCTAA	Condition not met
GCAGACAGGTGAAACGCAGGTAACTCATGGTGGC	Condition not met

[Q] Decide: PBM binding z-score of `AGTCACAGTTCATCTAGGTAACGTAAGATATGCT` >= 1?
[A] Condition not met

[Q] Quick check: does `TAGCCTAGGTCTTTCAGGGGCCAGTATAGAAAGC` have PBM binding z-score greater than or equal to 1?
[A] Condition not met

[Q] Determine whether this sequence has PBM binding z-score no lower than 1: `GATACAGGGTCAAGGCCAGAGTTCGCGTATTGAT`
[A] Condition met

[Q] Has `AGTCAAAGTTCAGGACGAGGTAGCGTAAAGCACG` a recorded PBM binding z-score greater than or equal to 1?
[A] Condition met

[Q] Exam item: decide whether the reported PBM binding z-score for `CGTCCAAGGTCAGAGGGGTCAGTGAATGCCGAGT` is at least 1.
[A] Condition met

[Q] In plain terms: is recorded PBM binding z-score at least 1 for `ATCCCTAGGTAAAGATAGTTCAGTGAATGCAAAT` ?
[A] Condition not met
